Items are presented alongside their recorded pIC50.
Target: human TYK2 (Homo sapiens)
Construct: catalytic domain (amino acids 871-1187; catalog number 08-147)
Sequence (P29597 871-1187): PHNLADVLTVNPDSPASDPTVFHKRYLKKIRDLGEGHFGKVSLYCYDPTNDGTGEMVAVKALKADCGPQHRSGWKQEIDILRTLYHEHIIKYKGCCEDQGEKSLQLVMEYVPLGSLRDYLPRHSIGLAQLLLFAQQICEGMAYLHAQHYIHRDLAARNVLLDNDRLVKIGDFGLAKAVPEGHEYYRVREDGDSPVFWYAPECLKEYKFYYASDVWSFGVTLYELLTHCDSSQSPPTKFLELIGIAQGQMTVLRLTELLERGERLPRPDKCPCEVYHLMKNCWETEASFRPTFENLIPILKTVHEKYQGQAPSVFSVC
Assay: TYK2 inhibition assay
Conditions: recombinant human TYK2 catalytic domain, polyGT substrate
pIC50: −log10 of the molar value.

Below, 3 compounds whose answers are already recorded.
- CCc1cc(C2CN(S(=O)(=O)CCOC)C2)ccc1N(C)c1cc2c(cn1)ncn2C: 7.00 to 11.00
- CCc1cc(C2=CCN(C(=O)N3CCC3)CC2)ccc1N(C)c1cc2c(cn1)ncn2C: 7.00 to 11.00
- CCc1cc(C2CN(CC(F)(F)F)C2)ncc1N(C)c1cc2c(cn1)ncn2C: < 6.00

Q: Request the reported pIC50 associated with CCc1cc(C2CN(C(=O)C3CC(F)(F)C3)C2)ncc1N(C)c1cc2c(cn1)ncn2C
Ans: < 6.00

Q: Looking for the measured pIC50 of CCc1cc(CC(=O)N2CC(C)(C)C2)ccc1N(C)c1cc2c(cn1)ncn2C , can you help?
Ans: < 6.00

Q: Which measured pIC50 value corresponds to CCc1cc(C2CN(C(=O)COC)C2)ccc1N(C)c1cc2c(cn1)ncn2C ?
Ans: 6.30 to 7.00

Q: Name the recorded pIC50 for CCc1cc(-c2cnn(C)c2)ncc1N(C)c1cc2c(cn1)ncn2C .
Ans: 6.30 to 7.00

Q: Give its pIC50 value. Item: CCc1ccc(C(=O)NC(C)(C)C)cc1N(C)c1cc2c(cn1)ncn2C
Ans: < 6.00
